All figures here come from the METLIN SMRT retention time set (Domingo-Almenara et al. 2019).

Each record here notes measured RP-LC retention time.
- Measurement protocol: gradient 5% acetonitrile 3 min, to 50% in 2 min, to 85% in 15 min, held 3 min, 100 µL/min
- Run parameters: column: Zorbax Extend-C18 2.1 x 50 mm; eluents: water / acetonitrile, 0.1% formic acid
Quantity measured: RP-LC retention time

1. CN1C(=O)Cc2cc(C(=O)N3CCN(c4ccccc4F)CC3)ccc21 | 765 s
2. COC(=O)c1ccc(NC(=O)C2CCCN(c3ncnc4c3nc3n4CCCCC3)C2)cc1 (stereo not given) | 808 s
3. CCOc1ccc(-n2nnnc2CNC(=O)CCCN2C(=O)c3ccccc3C2=O)cc1 | 734 s
4. CCOc1ccc(NC(=O)N2CCc3[nH]cnc3C2c2ccncc2)cc1 (stereo not given) | 561 s
5. Cc1noc(-c2nn(C)c3c2CN(C(=O)c2cc(F)ccc2F)CC3)n1 | 737 s
6. COCCNc1c(-c2cccc(F)c2)nc2sc(C(=O)N(C)C)c(C)n12 | 742 s
7. COc1ccc(-c2noc(-c3cccn(CC(=O)NC(C)C)c3=O)n2)cc1OC | 688 s
8. Cc1nnc(-c2cc(C)n(CC(=O)Nc3ccc(Br)cc3C)c2C)o1 | 847 s
9. Cc1oc(-c2ccccc2)nc1Cn1ccn2nc(-c3ccc4c(c3)OCO4)cc2c1=O | 1060 s
10. COc1ccc(-c2cn3c(CC(=O)Nc4cccc(C#N)c4)csc3n2)cc1 | 756 s
11. O=C(Cn1cnc(-c2nc(-c3ccccc3)cs2)c1)Nc1ccc(F)cc1F | 744 s
12. CN(C)S(=O)(=O)c1ccc(-c2nnc(C(=O)NCCN3CCc4ccccc4C3)o2)cc1 | 642 s
13. COc1ccc(Cc2nnc3sc(-c4ccccc4)nn23)cc1 | 810 s
14. C=CCNC(=O)N1CCCN(C2=NS(=O)(=O)C(c3cccc(Cl)c3)=C2C)CC1 | 773 s
15. CC(=O)c1cccc(NC(=O)c2noc3c2CCCC3)c1 | 874 s
16. O=CN1CC/C(=C/c2ccc3c(c2)OCO3)C1=O | 784 s
17. CCC(C)NC(=O)c1cc(COc2ccc(NC(=O)C(C)C)cc2)on1 (stereo not given) | 776 s
18. CCOC(=O)c1c(C)[nH]c(C(=O)N2CCC(CC(=O)NC3CC3)CC2)c1C | 654 s
19. COc1ccc(NC(=O)Cn2c(C)nc3c(sc4nc(-c5ccccc5)ccc43)c2=O)cc1Cl | 1090 s
20. Fc1ccc(CN2CCCCC2c2nc(-c3cnccn3)no2)cc1F (stereo not given) | 849 s
